Assay: activity coefficient (dimensionless); of the first substance listed, at infinite dilution; xn = mol fraction of the nth substance listed
Conditions: 348.15 K; Liquid; Chromatography; x1 = 0
quantity.name: activity coefficient

The cases that follow already have their activity coefficient on record.
compound: Cc1cccc(C)c1 [1,3-dimethylbenzene] + CCCC[N+]1(C)CCCCC1.N#C[S-]
activity coefficient: 5.27

compound: C#CCCCCCC [1-octyne] + CCCC[N+]1(C)CCCCC1.N#C[S-]
activity coefficient: 13.7

compound: C=CCCCC [hex-1-ene] + CCCC[N+]1(C)CCCCC1.N#C[S-]
activity coefficient: 32

compound: O [water] + CCCC[N+]1(C)CCCCC1.N#C[S-]
activity coefficient: 0.342

compound: CCCCCCCC [octane] + CCCC[N+]1(C)CCCCC1.N#C[S-]
activity coefficient: 161

compound: CCCCCCCCC [nonane] + CCCC[N+]1(C)CCCCC1.N#C[S-]
activity coefficient: 234

compound: C1CCCCCCC1 [cyclooctane] + CCCC[N+]1(C)CCCCC1.N#C[S-]
activity coefficient: 44.7

compound: Cc1ccc(C)cc1 [1,4-dimethylbenzene] + CCCC[N+]1(C)CCCCC1.N#C[S-]
activity coefficient: 5.1

[1] C1CCOC1 [tetrahydrofuran] + CCCC[N+]1(C)CCCCC1.N#C[S-]
[2] C1CCCC1 [cyclopentane] + CCCC[N+]1(C)CCCCC1.N#C[S-]
[3] CCCCCCC [heptane] + CCCC[N+]1(C)CCCCC1.N#C[S-]
IN: Which order do these items take when sorted by rising activity coefficient? List them. I'd appreciate it if you listed the labels in the requested order.
OUT: 1, 2, 3
